B1: FERM and PDZ domain-containing protein 4, residues 75 to 154; numbered along this chain, Q14CM0 (parent)
chain: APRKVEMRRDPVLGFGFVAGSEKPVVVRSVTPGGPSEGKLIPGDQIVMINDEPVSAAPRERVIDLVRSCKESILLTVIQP

Variants of: B1
test method notes: abundance fitness (aPCA) (normalised: wild type 0, dead -1); higher = more abundant; growth selection in yeast, the domain comes from the species named
measurement parameters: Homo sapiens
Please note: yes applies when abundance fitness is -0.05 or greater, and no applies otherwise.

INSERT INTO measurements (mut, category) VALUES
  ('L75F', 'no'),
  ('I73H', 'no'),
  ('P2D', 'no'),
  ('M48V', 'no'),
  ('I46P', 'no'),
  ('L40E', 'no'),
  ('R59S', 'no'),
  ('V26E', 'yes'),
  ('V18M', 'no'),
  ('S55T', 'no'),
  ('R59N', 'yes'),
  ('V66Q', 'no'),
  ('E37G', 'no'),
  ('D64W', 'no'),
  ('L65M', 'yes'),
  ('M48L', 'no'),
  ('R61Y', 'yes'),
  ('Q79A', 'yes'),
  ('V27L', 'no'),
  ('T76N', 'yes'),
  ('R8H', 'no');
